Target: TLR1/TLR2 (Homo sapiens, UniProt O60603+Q15399)
Sequence (Q15399 25-786): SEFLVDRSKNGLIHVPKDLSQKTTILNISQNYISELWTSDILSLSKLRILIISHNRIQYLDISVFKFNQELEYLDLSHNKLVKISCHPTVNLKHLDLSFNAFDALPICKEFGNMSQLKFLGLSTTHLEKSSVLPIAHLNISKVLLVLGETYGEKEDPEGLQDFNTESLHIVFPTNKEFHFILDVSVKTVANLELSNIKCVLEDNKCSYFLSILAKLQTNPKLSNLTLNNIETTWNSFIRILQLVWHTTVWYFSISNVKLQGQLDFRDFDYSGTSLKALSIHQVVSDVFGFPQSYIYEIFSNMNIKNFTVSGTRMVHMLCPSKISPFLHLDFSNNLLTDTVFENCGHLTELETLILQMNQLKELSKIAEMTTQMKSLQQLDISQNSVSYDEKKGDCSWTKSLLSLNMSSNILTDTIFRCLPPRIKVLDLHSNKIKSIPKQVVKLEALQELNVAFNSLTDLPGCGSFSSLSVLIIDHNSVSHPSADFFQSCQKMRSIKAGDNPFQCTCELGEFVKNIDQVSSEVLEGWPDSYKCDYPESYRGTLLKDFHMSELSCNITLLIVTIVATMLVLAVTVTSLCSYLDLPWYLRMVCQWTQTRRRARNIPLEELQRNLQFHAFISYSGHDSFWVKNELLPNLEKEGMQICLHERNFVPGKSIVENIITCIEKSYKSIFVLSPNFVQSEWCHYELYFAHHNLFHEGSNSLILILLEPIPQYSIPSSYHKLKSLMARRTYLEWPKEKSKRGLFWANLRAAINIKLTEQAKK
Sequence (O60603 21-784): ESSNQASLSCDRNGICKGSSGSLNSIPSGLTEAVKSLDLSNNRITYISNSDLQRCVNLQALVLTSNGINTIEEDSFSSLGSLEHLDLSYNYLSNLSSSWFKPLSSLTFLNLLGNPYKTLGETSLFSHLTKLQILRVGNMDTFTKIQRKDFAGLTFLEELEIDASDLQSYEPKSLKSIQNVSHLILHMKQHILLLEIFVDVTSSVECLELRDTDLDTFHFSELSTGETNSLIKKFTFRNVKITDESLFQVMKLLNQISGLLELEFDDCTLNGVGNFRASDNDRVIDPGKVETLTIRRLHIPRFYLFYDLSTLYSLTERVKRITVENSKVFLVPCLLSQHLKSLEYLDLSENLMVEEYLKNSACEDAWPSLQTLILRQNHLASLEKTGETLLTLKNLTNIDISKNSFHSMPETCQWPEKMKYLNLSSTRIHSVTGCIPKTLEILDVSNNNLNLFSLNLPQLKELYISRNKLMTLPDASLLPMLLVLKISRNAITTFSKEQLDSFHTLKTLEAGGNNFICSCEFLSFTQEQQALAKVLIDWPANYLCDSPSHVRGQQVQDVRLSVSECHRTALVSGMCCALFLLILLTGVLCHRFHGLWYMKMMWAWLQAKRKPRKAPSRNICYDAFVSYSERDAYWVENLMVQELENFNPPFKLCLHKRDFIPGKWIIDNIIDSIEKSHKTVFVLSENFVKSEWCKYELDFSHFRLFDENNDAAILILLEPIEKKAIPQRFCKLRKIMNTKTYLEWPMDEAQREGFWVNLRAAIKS
Experiment: TNF-α release from PMA-differentiated human THP-1 cells (ELISA)
Details: read-out: EC50 (nM) (THP-1): EC50 TNF-α release from human THP-1 cells; Table 3
In this section, each of the compounds is paired with its reported EC50.
readout.kind: EC50 (nM)

- item.smiles: "N#CCC(=O)OCCCCCCCCCCCCNC(=O)[C@@H]1CN(C(=O)c2ccc(C(=O)N3C[C@@H](C(=O)N[C@H]4C[C@@H]4c4ccccc4)[C@H](C(=O)N[C@H]4C[C@@H]4c4ccccc4)C3)cc2)C[C@H]1C(=O)N[C@H]1C[C@@H]1c1ccccc1"
  u: "nM"
  value.reported: 0.25
- item.smiles: "CC(=O)NCC(=O)OCCCCCCCCCCCCNC(=O)[C@@H]1CN(C(=O)c2ccc(C(=O)N3C[C@@H](C(=O)N[C@H]4C[C@@H]4c4ccccc4)[C@H](C(=O)N[C@H]4C[C@@H]4c4ccccc4)C3)cc2)C[C@H]1C(=O)N[C@H]1C[C@@H]1c1ccccc1"
  u: "nM"
  value.reported: 0.1
- item.smiles: "O=C(CNC(=O)OCC(Cl)(Cl)Cl)OCCCCCCCCCCCCNC(=O)[C@@H]1CN(C(=O)c2ccc(C(=O)N3C[C@@H](C(=O)N[C@H]4C[C@@H]4c4ccccc4)[C@H](C(=O)N[C@H]4C[C@@H]4c4ccccc4)C3)cc2)C[C@H]1C(=O)N[C@H]1C[C@@H]1c1ccccc1"
  u: "nM"
  value.reported: 0.27
- item.smiles: "C#CCOCC(=O)OCCCCCCCCCCCCNC(=O)[C@@H]1CN(C(=O)c2ccc(C(=O)N3C[C@@H](C(=O)N[C@H]4C[C@@H]4c4ccccc4)[C@H](C(=O)N[C@H]4C[C@@H]4c4ccccc4)C3)cc2)C[C@H]1C(=O)N[C@H]1C[C@@H]1c1ccccc1"
  u: "nM"
  value.reported: 0.29
- item.smiles: "O=C(CNC(=O)C(F)(F)F)OCCCCCCCCCCCCNC(=O)[C@@H]1CN(C(=O)c2ccc(C(=O)N3C[C@@H](C(=O)N[C@H]4C[C@@H]4c4ccccc4)[C@H](C(=O)N[C@H]4C[C@@H]4c4ccccc4)C3)cc2)C[C@H]1C(=O)N[C@H]1C[C@@H]1c1ccccc1"
  u: "nM"
  value.reported: 0.7
- item.smiles: "COC(=O)CNC(=O)OCCCCCCCCCCCCNC(=O)[C@@H]1CN(C(=O)c2ccc(C(=O)N3C[C@@H](C(=O)N[C@H]4C[C@@H]4c4ccccc4)[C@H](C(=O)N[C@H]4C[C@@H]4c4ccccc4)C3)cc2)C[C@H]1C(=O)N[C@H]1C[C@@H]1c1ccccc1"
  u: "nM"
  value.reported: 0.2
- item.smiles: "CN(C)CC(=O)OCCCCCCCCCCCCNC(=O)[C@@H]1CN(C(=O)c2ccc(C(=O)N3C[C@@H](C(=O)N[C@H]4C[C@@H]4c4ccccc4)[C@H](C(=O)N[C@H]4C[C@@H]4c4ccccc4)C3)cc2)C[C@H]1C(=O)N[C@H]1C[C@@H]1c1ccccc1"
  u: "nM"
  value.reported: 0.05
- item.smiles: "COC(=O)NCC(=O)OCCCCCCCCCCCCNC(=O)[C@@H]1CN(C(=O)c2ccc(C(=O)N3C[C@@H](C(=O)N[C@H]4C[C@@H]4c4ccccc4)[C@H](C(=O)N[C@H]4C[C@@H]4c4ccccc4)C3)cc2)C[C@H]1C(=O)N[C@H]1C[C@@H]1c1ccccc1"
  u: "nM"
  value.reported: 0.38
- item.smiles: "O=C(NCCCCCCCCCCCCOCc1ccc([N+](=O)[O-])cc1)[C@@H]1CN(C(=O)c2ccc(C(=O)N3C[C@@H](C(=O)N[C@H]4C[C@@H]4c4ccccc4)[C@H](C(=O)N[C@H]4C[C@@H]4c4ccccc4)C3)cc2)C[C@H]1C(=O)N[C@H]1C[C@@H]1c1ccccc1"
  u: "nM"
  value.reported: 0.25
- item.smiles: "[N-]=[N+]=NCC(=O)OCCCCCCCCCCCCNC(=O)[C@@H]1CN(C(=O)c2ccc(C(=O)N3C[C@@H](C(=O)N[C@H]4C[C@@H]4c4ccccc4)[C@H](C(=O)N[C@H]4C[C@@H]4c4ccccc4)C3)cc2)C[C@H]1C(=O)N[C@H]1C[C@@H]1c1ccccc1"
  u: "nM"
  value.reported: 0.21
- item.smiles: "NCC(=O)OCCCCCCCCCCCCNC(=O)[C@@H]1CN(C(=O)c2ccc(C(=O)N3C[C@@H](C(=O)N[C@H]4C[C@@H]4c4ccccc4)[C@H](C(=O)N[C@H]4C[C@@H]4c4ccccc4)C3)cc2)C[C@H]1C(=O)N[C@H]1C[C@@H]1c1ccccc1"
  u: "nM"
  value.reported: 0.07
- item.smiles: "C#CCN(C)CC(=O)OCCCCCCCCCCCCNC(=O)[C@@H]1CN(C(=O)c2ccc(C(=O)N3C[C@@H](C(=O)N[C@H]4C[C@@H]4c4ccccc4)[C@H](C(=O)N[C@H]4C[C@@H]4c4ccccc4)C3)cc2)C[C@H]1C(=O)N[C@H]1C[C@@H]1c1ccccc1"
  u: "nM"
  value.reported: 0.59
- item.smiles: "Nc1ccc(COCCCCCCCCCCCCNC(=O)[C@@H]2CN(C(=O)c3ccc(C(=O)N4C[C@@H](C(=O)N[C@H]5C[C@@H]5c5ccccc5)[C@H](C(=O)N[C@H]5C[C@@H]5c5ccccc5)C4)cc3)C[C@H]2C(=O)N[C@H]2C[C@@H]2c2ccccc2)cc1"
  u: "nM"
  value.reported: 0.26
- item.smiles: "CC(C)(C)OC(=O)NCCOCCCCCCCCCCCCNC(=O)[C@@H]1CN(C(=O)c2ccc(C(=O)N3C[C@@H](C(=O)N[C@H]4C[C@@H]4c4ccccc4)[C@H](C(=O)N[C@H]4C[C@@H]4c4ccccc4)C3)cc2)C[C@H]1C(=O)N[C@H]1C[C@@H]1c1ccccc1"
  u: "nM"
  value.reported: 3

###

Measured Emax, listed per entry.
Target: TLR1/TLR2 (Homo sapiens, UniProt O60603+Q15399)
Assay: TNF-α release from PMA-differentiated human THP-1 cells (ELISA);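 note: cells exposed to graded compound concentrations for 4 h, TNF-α quantified in supernatant, LPS as positive and DMSO as negative control, values are duplicate means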
Conditions: THP-1, 4 h, read-out: Efficacy (magnitude) of response versus diprovocim-1 (100%), THP-1

- compound: "CC(C)(C)OC(=O)NCCOCCOCCOCCOCCC(=O)OCCCCCCCCCCCCNC(=O)[C@@H]1CN(C(=O)c2ccc(C(=O)N3C[C@@H](C(=O)N[C@H]4C[C@@H]4c4ccccc4)[C@H](C(=O)N[C@H]4C[C@@H]4c4ccccc4)C3)cc2)C[C@H]1C(=O)N[C@H]1C[C@@H]1c1ccccc1 [Compound 55]"
  u: "%"
  Emax: 90
- compound: "CC(C)(C)OC(=O)NNC(=O)OCCCCCCCCCCCCNC(=O)[C@@H]1CN(C(=O)c2ccc(C(=O)N3C[C@@H](C(=O)N[C@H]4C[C@@H]4c4ccccc4)[C@H](C(=O)N[C@H]4C[C@@H]4c4ccccc4)C3)cc2)C[C@H]1C(=O)N[C@H]1C[C@@H]1c1ccccc1 [Compound 71]"
  u: "%"
  Emax: 100
- compound: "CN(C)CC(=O)OCCCCCCCCCCCCNC(=O)[C@@H]1CN(C(=O)c2ccc(C(=O)N3C[C@@H](C(=O)N[C@H]4C[C@@H]4c4ccccc4)[C@H](C(=O)N[C@H]4C[C@@H]4c4ccccc4)C3)cc2)C[C@H]1C(=O)N[C@H]1C[C@@H]1c1ccccc1 [Compound 44]"
  u: "%"
  Emax: 100
- compound: "CN(CC(=O)OCCCCCCCCCCCCNC(=O)[C@@H]1CN(C(=O)c2ccc(C(=O)N3C[C@@H](C(=O)N[C@H]4C[C@@H]4c4ccccc4)[C@H](C(=O)N[C@H]4C[C@@H]4c4ccccc4)C3)cc2)C[C@H]1C(=O)N[C@H]1C[C@@H]1c1ccccc1)C(=O)OC(C)(C)C [Compound 70]"
  u: "%"
  Emax: 100

###

Molecular target: TLR1/TLR2 (Mus musculus, UniProt Q9EPQ1+Q9QUN7)
Sequence (Q9EPQ1 26-795): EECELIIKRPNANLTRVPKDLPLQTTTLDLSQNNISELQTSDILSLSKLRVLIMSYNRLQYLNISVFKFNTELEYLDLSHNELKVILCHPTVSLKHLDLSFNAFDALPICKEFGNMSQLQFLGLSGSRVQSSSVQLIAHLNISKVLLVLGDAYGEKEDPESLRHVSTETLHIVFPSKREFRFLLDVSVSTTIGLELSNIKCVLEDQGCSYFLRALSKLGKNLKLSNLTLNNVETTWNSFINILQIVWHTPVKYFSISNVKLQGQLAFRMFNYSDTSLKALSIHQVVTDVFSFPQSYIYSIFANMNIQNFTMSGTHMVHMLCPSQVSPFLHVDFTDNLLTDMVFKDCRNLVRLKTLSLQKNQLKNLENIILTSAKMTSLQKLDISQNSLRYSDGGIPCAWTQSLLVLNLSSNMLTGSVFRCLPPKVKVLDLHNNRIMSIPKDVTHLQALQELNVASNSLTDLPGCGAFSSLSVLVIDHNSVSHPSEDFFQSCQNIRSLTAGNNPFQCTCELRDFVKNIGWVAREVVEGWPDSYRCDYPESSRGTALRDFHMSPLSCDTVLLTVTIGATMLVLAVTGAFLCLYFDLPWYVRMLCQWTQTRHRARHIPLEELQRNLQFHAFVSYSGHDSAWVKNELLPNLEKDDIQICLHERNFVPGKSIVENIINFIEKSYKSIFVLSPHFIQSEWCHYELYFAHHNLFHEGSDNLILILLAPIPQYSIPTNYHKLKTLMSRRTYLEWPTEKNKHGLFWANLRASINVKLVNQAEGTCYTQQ
Sequence (Q9QUN7 25-784): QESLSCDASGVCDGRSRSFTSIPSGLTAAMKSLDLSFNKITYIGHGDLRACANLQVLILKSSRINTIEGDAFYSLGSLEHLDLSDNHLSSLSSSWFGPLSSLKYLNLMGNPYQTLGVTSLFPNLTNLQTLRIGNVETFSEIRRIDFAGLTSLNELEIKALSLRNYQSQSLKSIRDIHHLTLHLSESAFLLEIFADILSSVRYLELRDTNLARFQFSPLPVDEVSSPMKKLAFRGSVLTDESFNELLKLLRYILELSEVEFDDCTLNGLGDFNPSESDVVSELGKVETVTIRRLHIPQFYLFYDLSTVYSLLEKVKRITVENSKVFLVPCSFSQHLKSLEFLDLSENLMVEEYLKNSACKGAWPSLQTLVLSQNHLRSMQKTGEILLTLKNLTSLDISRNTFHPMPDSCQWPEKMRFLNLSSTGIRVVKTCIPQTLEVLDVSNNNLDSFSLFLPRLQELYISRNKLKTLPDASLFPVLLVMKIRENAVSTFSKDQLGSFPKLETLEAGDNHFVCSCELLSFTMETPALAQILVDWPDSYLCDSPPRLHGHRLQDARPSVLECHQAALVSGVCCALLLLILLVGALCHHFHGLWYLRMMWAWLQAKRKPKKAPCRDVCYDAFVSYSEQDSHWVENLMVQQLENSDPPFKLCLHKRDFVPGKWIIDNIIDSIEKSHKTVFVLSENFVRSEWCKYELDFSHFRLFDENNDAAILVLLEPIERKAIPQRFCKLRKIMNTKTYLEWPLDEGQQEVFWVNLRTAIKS
Test: TNF-α release from thioglycolate-elicited mouse peritoneal macrophages (ELISA)
Conditions: read-out: EC50 (nM) (mouse): EC50 TNF-α release from mouse macrophages; Table 1

- molecule: "CNC(=O)CCCCCCCCCCCNC(=O)[C@@H]1CN(C(=O)c2ccc(C(=O)N3C[C@@H](C(=O)N[C@H]4C[C@@H]4c4ccccc4)[C@H](C(=O)N[C@H]4C[C@@H]4c4ccccc4)C3)cc2)C[C@H]1C(=O)N[C@H]1C[C@@H]1c1ccccc1 [Compound 13]"
  EC50 [nM]: 60
- molecule: "CC(C)(C)OC(=O)CNC(=O)CCCCCCCCCCCNC(=O)[C@@H]1CN(C(=O)c2ccc(C(=O)N3C[C@@H](C(=O)N[C@H]4C[C@@H]4c4ccccc4)[C@H](C(=O)N[C@H]4C[C@@H]4c4ccccc4)C3)cc2)C[C@H]1C(=O)N[C@H]1C[C@@H]1c1ccccc1 [Compound 14]"
  EC50 [nM]: 25
- molecule: "O=C(NCCCCCCCCO)[C@@H]1CN(C(=O)c2ccc(C(=O)N3C[C@@H](C(=O)N[C@H]4C[C@@H]4c4ccccc4)[C@H](C(=O)N[C@H]4C[C@@H]4c4ccccc4)C3)cc2)C[C@H]1C(=O)N[C@H]1C[C@@H]1c1ccccc1 [Compound 9]"
  EC50 [nM]: 93
- molecule: "O=C(NCCCCCCCCc1ccc(O)cc1)[C@@H]1CN(C(=O)c2ccc(C(=O)N3C[C@@H](C(=O)N[C@H]4C[C@@H]4c4ccccc4)[C@H](C(=O)N[C@H]4C[C@@H]4c4ccccc4)C3)cc2)C[C@H]1C(=O)N[C@H]1C[C@@H]1c1ccccc1 [Compound 26]"
  EC50 [nM]: 2.6
